# Tested on: PPARg:RXRa (NR concentration 180 nM, RXRa partner concentration 90 nM)
# METHOD: PBM binding z-score (relative to random genomic background probes); higher = stronger binding; sequences stand for … in GC…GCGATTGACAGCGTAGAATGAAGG
QUANTITY_MEASURED: PBM binding z-score

* TCGAGTAGGTTACCAATTGGGCATTCAGCTTTCT | -0.0221
* TCATATAGGTAATACAGGTGAAATTCGGCATCTA | 1.65
* CGTCCAAGGTCAATGCTAGGGCAGTGAAAGCATT | 3.68
* ACTAATAGTTGACTTAGGGCAACCGATACGACGC | 0.962
* GCAGACAGGTGAAACGCAGGTAATTCAGGGTGGC | 0.419
* GCTAGCAGGCCATTTGGGTGACTCAATGACGGGC | 0.218
